Tested on: platelets on solid phase fibrinogen
measurement.description: Effect of compound on platelet stretching on solid phase fibrinogen
Assay type: cell-based
reported.conditions: 1 h, washed platelets, incubated 60 min at 37° C., read-out: Concentration range for compounds that inhibit platelet stretching on fibrinogen
quantity: minimal effective concentration

Checklist item: minimal effective concentration tested on platelets on solid phase fibrinogen, entry CCOC(=O)c1c(CNC(=N)N)n(C)c2ccncc12 , value?
100 to 250 µM

Hello, I am looking for reported minimal effective concentration with platelets on solid phase fibrinogen for CCOC(=O)c1c(CNC(=N)N)n(C)c2cc(C3CC3)c(-c3cccc4ccccc34)cc12 . Could you help?
10 to 100 µM

Item CCOC(=O)c1c(CSC(=N)N)n(C)c2cc(C3=CCCCCC3)ccc12 with platelets on solid phase fibrinogen - minimal effective concentration?
100 to 250 µM

Give the reported minimal effective concentration for CCOC(=O)c1c(CNC(=N)N)n(C)c2cc(-c3cc(Cl)cc4ccccc34)ccc12 (system: platelets on solid phase fibrinogen).
100 to 250 µM

What reported minimal effective concentration corresponds to CCOC(=O)c1c(CNC(=N)N)sc2cc(-c3cccc4ccccc34)c(OC)cc12 on platelets on solid phase fibrinogen?
10 to 100 µM

# returns recorded minimal effective concentration (system: platelets on solid phase fibrinogen) for CCOC(=O)c1c(CNC(=N)N)n(C)c2cc(C3=CCCCCC3)ccc12
100 to 250 µM

Record CCOC(=O)c1c(CSC(=N)N)n(C)c2cc(OC3CCCC3)ccc12 : what is its minimal effective concentration with platelets on solid phase fibrinogen?
100 to 250 µM

Return minimal effective concentration measured with platelets on solid phase fibrinogen given this compound: CCOC(=O)c1c(CNC(=N)N)n(C)c2ccc(Br)cc12
10 to 100 µM

Lab note: need minimal effective concentration with platelets on solid phase fibrinogen for entry CCOC(=O)c1c(CSC(=N)N)n(C)c2cc(C3CCCc4ccccc43)ccc12 (stereo not drawn) , please look it up.
10 to 100 µM

Query the reported minimal effective concentration for platelets on solid phase fibrinogen; item: CCOC(=O)c1c(CSC(=N)N)n(C)c2cc(Oc3ccccc3)ccc12
10 to 100 µM

State its minimal effective concentration on platelets on solid phase fibrinogen: CCOC(=O)c1c(CSC(=N)N)n(-c2ccccc2)c2ccccc12
10 to 100 µM

Form: Entry = CCOC(=O)c1c(CNC(=N)N)n(C)c2cc(-c3c4c(cc5c3CCCC5)CCCC4)ccc12 | System = platelets on solid phase fibrinogen | minimal effective concentration = ____
100 to 250 µM

# query: minimal effective concentration | item CCOC(=O)c1c(CNC(=N)N)n(C)c2cc(-c3cccc4ccccc34)c(C3CC3)cc12 | system: platelets on solid phase fibrinogen
10 to 100 µM

// map CCOC(=O)c1c(CNC(=N)N)n(C)c2cc(C3CCCc4ccccc43)ccc12 (stereo not drawn) to recorded minimal effective concentration (system: platelets on solid phase fibrinogen)
10 to 100 µM

Checklist item: minimal effective concentration tested on platelets on solid phase fibrinogen, entry CCOC(=O)c1c(CNC(=N)N)n(C)c2cc(C3CCCC3)c(-c3cccc4ccccc34)cc12 , value?
100 to 250 µM

# query: minimal effective concentration | item CCOC(=O)c1c(CNC(=N)N)n(C)c2cc(-c3ccc(F)c4ccccc34)ccc12 | system: platelets on solid phase fibrinogen
100 to 250 µM

Record lookup: for platelets on solid phase fibrinogen, what minimal effective concentration belongs to CCOC(=O)c1c(CNC(=N)N)n(C)c2cc(-c3cccc4ccccc34)c(OC3CCCC3)cc12 ?
10 to 100 µM

Identify the measured minimal effective concentration of CCOC(=O)c1c(CNC(=N)N)n(C)c2cc(-c3ccc4ccccc4c3)ccc12 for platelets on solid phase fibrinogen.
100 to 250 µM

* * *

Tested on: platelets on solid phase fibrinogen
measurement.description: Effect of compound on platelet stretching on solid phase fibrinogen
Assay type: cell-based
reported.conditions: 1 h, washed platelets, incubated 60 min at 37° C., read-out: Concentration range for compounds that inhibit platelet stretching on fibrinogen
Task for the reader: assign each of the following compounds its reported minimal effective concentration.

Would you mind telling me what minimal effective concentration value was observed for CCOC(=O)c1c(CNC(=N)N)n(C)c2cc(C3CCCCC3)ccc12 ?
10 to 100 µM

For the compound CCOC(=O)c1c(CSC(=N)N)n(C)c2cc(C3=CCCCC3)ccc12 , what minimal effective concentration is on record?
100 to 250 µM

Name the reported minimal effective concentration value associated with the compound CCOC(=O)c1c(CNC(=N)N)n(C)c2cc(-c3cccc4ccc(F)cc34)ccc12
10 to 100 µM

* * *

target: Src kinase SH3 domain protein (Homo sapiens (Human))
Sequence (P12931 whole entry, looked up, the tested form may be a part): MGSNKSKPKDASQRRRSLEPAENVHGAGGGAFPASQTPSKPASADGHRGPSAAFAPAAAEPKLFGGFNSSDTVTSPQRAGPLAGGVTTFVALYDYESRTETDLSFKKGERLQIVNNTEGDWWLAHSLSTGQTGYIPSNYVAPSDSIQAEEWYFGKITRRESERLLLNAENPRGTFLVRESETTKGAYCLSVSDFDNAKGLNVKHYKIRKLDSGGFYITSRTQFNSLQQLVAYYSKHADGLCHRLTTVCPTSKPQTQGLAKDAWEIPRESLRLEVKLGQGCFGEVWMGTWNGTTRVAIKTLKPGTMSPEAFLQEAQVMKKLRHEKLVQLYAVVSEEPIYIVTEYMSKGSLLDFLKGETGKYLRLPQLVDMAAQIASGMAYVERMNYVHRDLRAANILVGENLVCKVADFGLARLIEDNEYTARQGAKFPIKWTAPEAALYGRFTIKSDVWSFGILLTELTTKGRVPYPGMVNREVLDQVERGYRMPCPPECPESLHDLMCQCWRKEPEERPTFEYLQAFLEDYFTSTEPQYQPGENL
pKd: −log10 of the molar value.
quantity: pKd

Item CCOC(=O)c1c(CNC(=N)N)n(C)c2cc(C3=CCOc4ccccc43)ccc12 [SYY-C086] has what recorded pKd?
> 6.00

Any idea what its pKd is? The compound is CCOC(=O)c1c(CNC(=N)N)n(C)c2cnccc12 [SYY-C035]
5.00 to 6.00

Which pKd value is on record for CCOC(=O)c1c(CNC(=N)N)n(C)c2cc(-c3cccc4ccccc34)c(Cl)cc12 [SYY-C104] ?
> 6.00

Fill blank: measured pKd of the compound CCOC(=O)c1c(CNC(=N)N)n(C)c2cc(-c3cccc4ccc(F)cc34)ccc12 [SYY-C094] is ____.
> 6.00

GET /values?readout=pKd&item= CCOC(=O)c1c(CNC(=N)N)n(C)c2cc(-c3c4ccccc4cc4ccccc34)ccc12 [SYY-C078]
> 6.00

Query (compound): CCOC(=O)c1c(CNC(=N)N)sc2cc(-c3cccc4ccccc34)c(C3=CCCC3)cc12 [SYY-C123] ; field requested: pKd
4.00 to 5.00

Returns the measured pKd for the input compound. Input: CCOC(=O)c1c(CNC(=N)N)n(C)c2ccc(C3=CCCc4ccccc43)cc12 [SYY-C071]
> 6.00

# get_value(readout='pKd', item= CCOC(=O)c1c(CNC(=N)N)n(C)c2cc(-c3cccc4c(Cl)cccc34)ccc12 [SYY-C084] )
> 6.00

Form field: reported pKd of CCOC(=O)c1c(CNC(=N)N)n(C)c2cc(C3=CCCc4ccccc43)ccc12 [SYY-C068]
5.00 to 6.00

Data request, read-out pKd, for CCOC(=O)c1c(CNC(=N)N)n(C)c2cc(C3=CCCC3)c(-c3cccc4ccccc34)cc12 [SYY-C116]
> 6.00

Please report the recorded pKd for CCOC(=O)c1c(CNC(=N)N)sc2cc(-c3cccc4ccccc34)c(C3CCCC3)cc12 [SYY-C121] .
5.00 to 6.00

I would be grateful if you could share the reported pKd for CCOC(=O)c1c(CNC(=N)N)n(C)c2cc(C3CCCC3)c(-c3cccc4ccccc34)cc12 [SYY-C117] .
4.00 to 5.00

Give the measured pKd of Cn1c(CNC(=N)N)c(C(N)=O)c2ccc(-c3cccc4ccccc34)cc21 [SYY-C101] .
> 6.00

Could you tell me which pKd is on file for CCOC(=O)c1c(CNC(=N)N)sc2cc(-c3cccc4ccccc34)c(C3CCCc4ccccc43)cc12 (stereo not shown) [SYY-C131] ?
4.00 to 5.00

Fill blank: measured pKd of the compound CCOC(=O)c1c(CNC(=N)N)n(C)c2cc(-c3cccc4cccc(C)c34)ccc12 [SYY-C091] is ____.
> 6.00

Recorded pKd of CCOC(=O)c1c(CNC(=N)N)n(C)c2ncc(OC3CCCC3)cc12 [SYY-C010] , please.
4.00 to 5.00

Need pKd, item CCOC(=O)c1c(CNC(=N)N)n(C)c2cc(Br)ccc12 [SYY-C015]
> 6.00

I'd like to know its pKd. The compound in question is CCOC(=O)c1c(CNC(=N)N)n(-c2ccccc2)c2ccccc12 [SYY-C030]
4.00 to 5.00

Name the recorded pKd for CCOC(=O)c1c(CSC(=N)N)n(C)c2cc(-c3cccc4ccccc34)ccc12 [SYY-C042] .
5.00 to 6.00

Value lookup for pKd; key = CCOC(=O)c1c(CNC(=N)N)sc2cc(-c3cccc4ccccc34)c(OC)cc12 [SYY-C125]
> 6.00

Report pKd for CCOC(=O)c1c(CNC(=N)N)n(-c2ccccc2)c2cc(-c3cccc4ccccc34)ccc12 [SYY-C082] please.
> 6.00

What does the data say about its pKd? Entry: CCOC(=O)c1c(CNC(=N)N)n(C)c2cc(Cl)c(-c3cccc4ccccc34)cc12 [SYY-C118]
> 6.00

Recorded pKd for CCOC(=O)c1c(CNC(=N)N)n(C)c2cc(-c3cccc4ccc(C)cc34)ccc12 [SYY-C087] , please?
4.00 to 5.00

Field request: pKd | item: CCOC(=O)c1c(CNC(=N)N)n(C)c2cc(-c3cccc4ccc(F)cc34)ccc12 [SYY-C097]
4.00 to 5.00

Recorded pKd of CCOC(=O)c1c(CNC(=N)N)n(C)c2ccc(OC3CCCC3)nc12 [SYY-C007] , please.
> 6.00

For CCOC(=O)c1c(CNC(=N)N)n(C)c2cc(-c3cccc4cccc(F)c34)ccc12 [SYY-C096] , what is its reported pKd?
> 6.00

Entry CCOC(=O)c1c(CNC(=N)N)sc2ccc(-c3cccc4ccccc34)cc12 [SYY-C107] : reported pKd = ?
> 6.00

Item CCOC(=O)c1c(CNC(=N)N)sc2cc(-c3cccc4ccccc34)c(OC3CCCCC3)cc12 [SYY-C127] has what recorded pKd?
> 6.00
